Provide the recorded pIC50 for the entries that follow.
- ASSAYED_TARGET: Ephrin type-A receptor 7 (Mus musculus)
- Sequence (Q61772 whole entry): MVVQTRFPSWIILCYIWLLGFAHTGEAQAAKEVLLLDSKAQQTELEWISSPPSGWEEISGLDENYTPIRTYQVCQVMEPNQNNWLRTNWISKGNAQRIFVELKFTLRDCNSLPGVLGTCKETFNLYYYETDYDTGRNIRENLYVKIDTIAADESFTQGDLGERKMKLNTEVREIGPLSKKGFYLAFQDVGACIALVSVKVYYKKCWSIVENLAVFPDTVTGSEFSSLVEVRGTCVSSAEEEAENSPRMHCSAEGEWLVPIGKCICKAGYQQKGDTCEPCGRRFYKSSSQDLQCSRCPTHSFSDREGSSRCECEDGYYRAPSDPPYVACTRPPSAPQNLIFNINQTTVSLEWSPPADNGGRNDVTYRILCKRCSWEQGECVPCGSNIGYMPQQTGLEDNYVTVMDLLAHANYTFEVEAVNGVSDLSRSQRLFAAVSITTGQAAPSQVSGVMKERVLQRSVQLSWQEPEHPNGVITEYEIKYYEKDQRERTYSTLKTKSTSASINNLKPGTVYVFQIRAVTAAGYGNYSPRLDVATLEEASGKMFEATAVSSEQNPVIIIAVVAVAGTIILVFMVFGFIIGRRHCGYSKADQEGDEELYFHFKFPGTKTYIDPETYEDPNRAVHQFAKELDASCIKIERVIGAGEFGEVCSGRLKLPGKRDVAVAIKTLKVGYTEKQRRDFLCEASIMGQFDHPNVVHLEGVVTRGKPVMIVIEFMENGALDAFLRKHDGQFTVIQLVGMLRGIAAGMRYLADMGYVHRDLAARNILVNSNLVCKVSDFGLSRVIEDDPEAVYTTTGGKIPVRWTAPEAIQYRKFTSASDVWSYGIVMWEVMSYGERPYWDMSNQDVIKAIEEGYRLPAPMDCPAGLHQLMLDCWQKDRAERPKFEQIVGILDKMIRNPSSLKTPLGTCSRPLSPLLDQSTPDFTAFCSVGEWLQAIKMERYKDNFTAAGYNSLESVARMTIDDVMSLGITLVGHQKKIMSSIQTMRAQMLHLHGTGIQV
- METHOD_DESCRIPTION: Displacement of biotinylated Fc-tagged ephrin-A1 from recombinant N/C-terminal 6-his tagged mouse EphA7 (Ala30 to Pro549 residues) preincubated for 1 hr followed by ephrin-A1-Fc addition and measured after 4 to 5 hrs by ELISA assay
Recall that pIC50 is obtained by taking minus log10 of the concentration measured in molar.

Ask | Please give the measured pIC50 for this molecule: C[C@H](CCC(=O)N[C@H](CC(=O)O)Cc1c[nH]c2ccccc12)[C@H]1CC[C@H]2[C@@H]3CC=C4C[C@@H](O)CC[C@]4(C)[C@H]3CC[C@]12C
Reply | 5.35

Ask | Entry C[C@H](CCC(=O)N[C@H](CC(=O)O)Cc1cn(S(=O)(=O)c2ccccc2)c2ccccc12)[C@H]1CC[C@H]2[C@@H]3CC=C4C[C@@H](O)CC[C@]4(C)[C@H]3CC[C@]12C please
Reply | 4.66

Ask | Entry C[C@H](CCC(=O)N[C@H](CC(=O)O)Cc1cn(S(=O)(=O)c2ccc(C(F)(F)F)cc2)c2ccccc12)[C@H]1CC[C@H]2[C@@H]3CC=C4C[C@@H](O)CC[C@]4(C)[C@H]3CC[C@]12C please
Reply | 4.82

====

- ASSAYED_TARGET: Ephrin type-A receptor 3 (Mus musculus, UniProt P29319)
- Sequence (P29319 whole entry): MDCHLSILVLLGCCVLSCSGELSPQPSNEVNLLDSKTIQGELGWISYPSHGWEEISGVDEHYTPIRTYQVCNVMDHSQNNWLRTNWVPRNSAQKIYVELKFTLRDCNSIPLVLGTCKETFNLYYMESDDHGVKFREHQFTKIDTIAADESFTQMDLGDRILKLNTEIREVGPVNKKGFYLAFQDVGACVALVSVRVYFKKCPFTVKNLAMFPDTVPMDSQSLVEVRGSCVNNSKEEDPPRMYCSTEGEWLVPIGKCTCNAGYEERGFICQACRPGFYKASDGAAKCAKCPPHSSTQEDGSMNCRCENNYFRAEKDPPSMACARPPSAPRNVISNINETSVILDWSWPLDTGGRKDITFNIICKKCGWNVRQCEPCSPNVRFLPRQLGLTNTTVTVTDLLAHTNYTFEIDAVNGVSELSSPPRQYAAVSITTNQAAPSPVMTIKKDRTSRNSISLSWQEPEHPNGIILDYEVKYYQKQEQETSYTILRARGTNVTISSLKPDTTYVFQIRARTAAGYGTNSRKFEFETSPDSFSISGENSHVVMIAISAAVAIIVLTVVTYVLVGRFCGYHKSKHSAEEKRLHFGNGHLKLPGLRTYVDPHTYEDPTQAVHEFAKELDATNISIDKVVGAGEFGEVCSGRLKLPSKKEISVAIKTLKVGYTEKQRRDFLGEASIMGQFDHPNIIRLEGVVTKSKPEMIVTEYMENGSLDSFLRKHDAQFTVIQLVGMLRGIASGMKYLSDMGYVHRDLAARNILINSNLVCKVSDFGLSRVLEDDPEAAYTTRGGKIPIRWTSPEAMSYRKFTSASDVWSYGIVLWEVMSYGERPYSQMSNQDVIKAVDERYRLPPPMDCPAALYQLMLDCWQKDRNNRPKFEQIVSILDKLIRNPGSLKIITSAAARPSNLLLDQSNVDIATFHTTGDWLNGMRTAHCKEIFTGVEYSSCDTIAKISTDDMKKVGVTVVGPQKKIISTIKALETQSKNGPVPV
- METHOD_DESCRIPTION: Displacement of biotinylated Fc-tagged ephrin-A1 from recombinant N/C-terminal 6-his tagged mouse EphA3 (Glu21 to His541 residues) preincubated for 1 hr followed by ephrin-A1-Fc addition and measured after 4 to 5 hrs by ELISA assay
Provide the recorded IC50 for the entries that follow.
All answers are understood in µM, so give the number only.

Ask | Please give the measured IC50 for this compound: C[C@H](CCC(=O)N[C@H](CC(=O)O)Cc1cn(S(=O)(=O)c2ccccc2)c2ccccc12)[C@H]1CC[C@H]2[C@@H]3CC=C4C[C@@H](O)CC[C@]4(C)[C@H]3CC[C@]12C
Reply | 11

Ask | Entry C[C@H](CCC(=O)N[C@H](CC(=O)O)Cc1cn(S(=O)(=O)c2ccc(C(F)(F)F)cc2)c2ccccc12)[C@H]1CC[C@H]2[C@@H]3CC=C4C[C@@H](O)CC[C@]4(C)[C@H]3CC[C@]12C please
Reply | 7.6

Ask | Entry C[C@H](CCC(=O)N[C@H](CC(=O)O)Cc1c[nH]c2ccccc12)[C@H]1CC[C@H]2[C@@H]3CC=C4C[C@@H](O)CC[C@]4(C)[C@H]3CC[C@]12C please
Reply | 4.1

====

Provide the recorded IC50 for the entries that follow.
- ASSAYED_TARGET: Ephrin type-A receptor 5 (Rattus norvegicus)
- Sequence (P54757 whole entry): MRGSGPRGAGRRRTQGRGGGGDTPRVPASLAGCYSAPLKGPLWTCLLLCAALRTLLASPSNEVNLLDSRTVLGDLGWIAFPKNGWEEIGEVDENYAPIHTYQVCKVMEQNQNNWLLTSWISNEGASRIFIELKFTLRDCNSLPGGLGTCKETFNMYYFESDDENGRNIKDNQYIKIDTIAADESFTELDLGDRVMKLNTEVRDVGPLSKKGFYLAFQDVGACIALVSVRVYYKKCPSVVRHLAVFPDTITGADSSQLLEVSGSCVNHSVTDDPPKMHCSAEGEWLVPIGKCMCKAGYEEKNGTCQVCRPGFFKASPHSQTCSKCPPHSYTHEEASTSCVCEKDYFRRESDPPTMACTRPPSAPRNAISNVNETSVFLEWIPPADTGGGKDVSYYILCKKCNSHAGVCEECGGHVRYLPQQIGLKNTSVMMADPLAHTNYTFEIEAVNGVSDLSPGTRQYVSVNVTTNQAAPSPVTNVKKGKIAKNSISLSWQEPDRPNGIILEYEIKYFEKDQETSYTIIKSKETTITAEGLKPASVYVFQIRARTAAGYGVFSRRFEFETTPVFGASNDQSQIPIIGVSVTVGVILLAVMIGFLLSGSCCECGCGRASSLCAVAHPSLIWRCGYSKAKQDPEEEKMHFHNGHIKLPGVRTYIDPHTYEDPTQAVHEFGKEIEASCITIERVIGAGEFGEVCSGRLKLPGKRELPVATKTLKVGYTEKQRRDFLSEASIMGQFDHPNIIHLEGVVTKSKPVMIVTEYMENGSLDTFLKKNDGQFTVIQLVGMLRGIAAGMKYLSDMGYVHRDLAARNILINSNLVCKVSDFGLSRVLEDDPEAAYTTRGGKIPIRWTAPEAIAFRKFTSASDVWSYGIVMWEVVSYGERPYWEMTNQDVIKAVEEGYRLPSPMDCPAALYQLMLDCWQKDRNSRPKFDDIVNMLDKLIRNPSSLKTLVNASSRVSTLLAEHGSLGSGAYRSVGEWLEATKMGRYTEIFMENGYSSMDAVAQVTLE
- METHOD_DESCRIPTION: Displacement of biotinylated Fc-tagged ephrin-A1 from recombinant N/C-terminal 6-his tagged rat EphA5 (Ser 58 to Gln573 residues) preincubated for 1 hr followed by ephrin-A1-Fc addition and measured after 4 to 5 hrs by ELISA assay
All answers are understood in µM, so give the number only.

Ask | Please give the measured IC50 for this molecule: C[C@H](CCC(=O)N[C@H](CC(=O)O)Cc1cn(S(=O)(=O)c2ccc(C(F)(F)F)cc2)c2ccccc12)[C@H]1CC[C@H]2[C@@H]3CC=C4C[C@@H](O)CC[C@]4(C)[C@H]3CC[C@]12C
Reply | 9.3

Ask | Entry C[C@H](CCC(=O)N[C@H](CC(=O)O)Cc1cn(S(=O)(=O)c2ccccc2)c2ccccc12)[C@H]1CC[C@H]2[C@@H]3CC=C4C[C@@H](O)CC[C@]4(C)[C@H]3CC[C@]12C please
Reply | 10

Ask | Entry C[C@H](CCC(=O)N[C@H](CC(=O)O)Cc1c[nH]c2ccccc12)[C@H]1CC[C@H]2[C@@H]3CC=C4C[C@@H](O)CC[C@]4(C)[C@H]3CC[C@]12C please
Reply | 3

====

Provide the recorded IC50 for the entries that follow.
- ASSAYED_TARGET: Ephrin type-A receptor 2 (Mus musculus)
- Sequence (Q03145 whole entry): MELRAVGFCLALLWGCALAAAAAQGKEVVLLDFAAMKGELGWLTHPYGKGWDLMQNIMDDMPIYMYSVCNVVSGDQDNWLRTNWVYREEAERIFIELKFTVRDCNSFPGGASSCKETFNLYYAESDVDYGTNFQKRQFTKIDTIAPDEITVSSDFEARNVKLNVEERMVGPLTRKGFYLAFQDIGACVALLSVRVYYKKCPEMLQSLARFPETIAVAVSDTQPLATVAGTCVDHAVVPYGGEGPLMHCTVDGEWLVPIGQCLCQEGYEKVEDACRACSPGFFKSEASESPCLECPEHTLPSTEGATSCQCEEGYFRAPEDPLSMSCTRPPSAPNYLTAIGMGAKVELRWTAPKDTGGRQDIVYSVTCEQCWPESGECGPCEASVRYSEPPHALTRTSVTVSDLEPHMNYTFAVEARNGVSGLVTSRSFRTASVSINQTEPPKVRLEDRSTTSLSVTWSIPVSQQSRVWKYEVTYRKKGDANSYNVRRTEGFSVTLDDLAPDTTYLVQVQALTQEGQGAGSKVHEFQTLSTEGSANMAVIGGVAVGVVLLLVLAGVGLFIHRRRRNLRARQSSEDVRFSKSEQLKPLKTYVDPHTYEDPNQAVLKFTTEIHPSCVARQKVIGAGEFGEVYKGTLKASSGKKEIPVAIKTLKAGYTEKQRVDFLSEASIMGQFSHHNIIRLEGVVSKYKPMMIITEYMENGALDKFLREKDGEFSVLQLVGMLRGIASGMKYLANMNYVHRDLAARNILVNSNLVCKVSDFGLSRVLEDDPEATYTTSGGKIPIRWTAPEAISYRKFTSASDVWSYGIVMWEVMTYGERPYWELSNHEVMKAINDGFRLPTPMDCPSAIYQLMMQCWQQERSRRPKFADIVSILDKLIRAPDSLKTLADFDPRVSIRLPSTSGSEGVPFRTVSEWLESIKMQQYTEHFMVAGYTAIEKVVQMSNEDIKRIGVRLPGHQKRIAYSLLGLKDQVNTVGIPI
- METHOD_DESCRIPTION: Displacement of biotinylated Fc-tagged ephrin-A1 from C/N-terminal 6-His tagged mouse recombinant EphA2 (Ala22 to Ala535 residues) preincubated for 1 hr followed by ephrin-A1-Fc addition and measured after 4 to 5 hrs by ELISA assay
Field note: include the unit after the figure.

Ask | Please give the measured IC50 for this compound: C[C@H](CCC(=O)N[C@H](CC(=O)O)Cc1cn(S(=O)(=O)c2ccc(C#N)cc2)c2ccccc12)[C@H]1CC[C@H]2[C@@H]3CC=C4C[C@@H](O)CC[C@]4(C)[C@H]3CC[C@]12C
Reply | 9.9 µM

Ask | Entry C[C@H](CCC(=O)N[C@H](CC(=O)O)Cc1cn(S(=O)(=O)c2ccccc2)c2ccccc12)[C@H]1CC[C@H]2[C@@H]3CC=C4C[C@@H](O)CC[C@]4(C)[C@H]3CC[C@]12C please
Reply | 8.1 µM

Ask | Entry C[C@H](CCC(=O)N[C@H](CC(=O)O)Cc1cn(S(=O)(=O)c2cccc(C(F)(F)F)c2)c2ccccc12)[C@H]1CC[C@H]2[C@@H]3CC=C4C[C@@H](O)CC[C@]4(C)[C@H]3CC[C@]12C please
Reply | 12 µM
